- Tgt: T1, 4H2447-AA
- T1 chain: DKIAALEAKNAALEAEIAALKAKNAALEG
- Experiment Description: two-hybrid library CCmax;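 also: natural log of median RNA to DNA barcode read ratio; higher means stronger binding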
- Study Conditions: mean of both orientations
Reported interaction score values follow for various binders
Number only, no unit.

I would be grateful if you could share the reported interaction score for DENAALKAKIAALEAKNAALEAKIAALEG [4H1845-AA] .
-1.57

DKIAALEAEIAALKAENAALKAKNAALEG [4H2143-AA] ?
-1.64

DKIAALEAEIAALKAKIAALEAENAALKG [4H2148-AA] ?
-1.42

DKIAALEAENAALKAKNAALEAEIAALKG [4H2290-AA] ?
-1.32
